src = patent US9463173B2

Subject Of Test: human recombinant HDAC1 (Homo sapiens, UniProt Q13547)
Sequence (Q13547 whole entry): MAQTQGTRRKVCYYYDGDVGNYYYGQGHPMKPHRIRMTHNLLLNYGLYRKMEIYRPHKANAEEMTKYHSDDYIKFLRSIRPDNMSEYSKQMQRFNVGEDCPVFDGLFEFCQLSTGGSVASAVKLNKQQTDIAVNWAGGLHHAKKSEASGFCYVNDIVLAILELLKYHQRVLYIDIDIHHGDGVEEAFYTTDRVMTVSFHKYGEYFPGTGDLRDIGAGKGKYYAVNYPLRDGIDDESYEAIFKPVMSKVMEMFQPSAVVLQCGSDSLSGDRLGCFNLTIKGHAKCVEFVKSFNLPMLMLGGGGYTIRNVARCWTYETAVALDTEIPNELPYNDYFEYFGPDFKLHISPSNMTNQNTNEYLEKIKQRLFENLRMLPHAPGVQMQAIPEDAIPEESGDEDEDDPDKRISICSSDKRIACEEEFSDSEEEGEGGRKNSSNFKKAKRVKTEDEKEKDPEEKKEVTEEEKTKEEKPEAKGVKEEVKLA
Experiment Summary: HDAC activity fluorometric assay, recombinant HDAC1
Assay type: biochemical
Particulars: 800 mM VPA; 1 mM TSA; 20 mM metabolites; mean ± S.D.
Method: FIG. 5A-5D. […] Deacetylation was measured using a fluorimetric assay. […] AMPKa was immunoprecipitated and immunoblotted for AMPKa and acetylated lysine (D). Immunoblots shown in D are representative of three independent experiments. Data in graphs are reported as the mean […] S.D. of samples from four independent experiments. […] DMSO, dimethylsulfoxide. […]
Assay Metric: deacetylation (%)

[
  {
    "Compound": "CCCC(C(=O)O)C(O)CC (centres unmarked) [3-OH-VPA, 3-Hydroxy-2-propylpentanoic Acid]",
    "deacetylation / %": 86
  },
  {
    "Compound": "C=CCC(CCC)C(=O)O (racemic) [4-ene-VPA, (+/−)-2-Propyl-4-pentenoic Acid]",
    "deacetylation / %": 81.5
  },
  {
    "Compound": "CC/C=C(\\CCC)C(=O)O [2-ene-VPA, (E,Z) 2-Propyl-2-pentenoic Acid]",
    "deacetylation / %": 90
  },
  {
    "Compound": "CCCC(C(=O)[O-])C(=O)CC.[Na+] (centres unmarked)",
    "deacetylation / %": 90.9
  },
  {
    "Compound": "CCCC(CCC)C(=O)O",
    "deacetylation / %": 73.2
  }
]
